test: chemical genetic growth profiling, strain panel (AID 1159580);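 note: tested at 20 µM; growth read once vehicle control cultures reached saturation at 30 °C; 1 = growth at the plate median or of vehicle wells; lower values mean less growth of the strain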; details: S. cerevisiae deletion strains, growth OD, locus YOR069W, strain VPS5, active compounds read low
Screen size: about 5,500 compounds; about 2,000 (36%) were called active. Roughly 18% stayed inconclusive and do not appear here. This is one part of the list.
reported endpoint: normalized growth
One number for each entry.

INSERT INTO assay_data (molecule, reported_endpoint, endpoint_result) VALUES
  ('CC(=O)O[C@@H]1CC[C@@]2(C)C(CC[C@]3(C)C2CC=C2C4CC(C)(C)CC[C@]4(C(=O)O)CC[C@]23C)C1(C)C (stereo partly drawn)', 'normalized growth', 0.989),
  ('CC1(C)CC[C@]2(C(=O)O)CC[C@]3(C)C(=CCC4[C@@]5(C)CC[C@H](O)[C@@](C)(CO)C5CC[C@]43C)C2C1 (stereo partly drawn)', 'normalized growth', 1.01);

normalized growth lookup needed for C[C@@H]1OC(O[C@H]2C(O[C@H]3CC[C@@]4(C)C(CC[C@]5(C)C4CC=C4C6CC(C)(C)CC[C@]6(C(=O)O)CC[C@]45C)[C@]3(C)CO)OC[C@H](O)[C@@H]2O)[C@H](O)[C@H](O)[C@H]1O (stereo partly drawn) , thanks.
0.193
